system: E. coli 94474; assay: microbe, parasite or virus in culture; assay type: cell-based, Escherichia coli; conditions: Escherichia coli, 18 h; E. coli 94474 (mcr-1 +); read-out: MICs of various antibiotics
Listed next: entries and their corresponding MIC.

Previously resolved entries follow.
>>> result("C[C@H]1[C@H](NC(=O)/C(=N\\OC(C)(C)C(=O)O)c2csc(N)n2)C(=O)N1S(=O)(=O)O")
"≤ 0.12 µg/mL"
>>> result("C[C@@H](O)[C@H]1C(=O)N2C(C(=O)O)=C(S[C@@H]3CN[C@H](C(=O)Nc4cccc(C(=O)O)c4)C3)[C@H](C)[C@H]12")
"≤ 0.03 µg/mL"

**Q:** Which MIC value is on record for "C[C@H]1c2cccc(O)c2C(=O)C2=C(O)[C@]3(O)C(=O)C(C(N)=O)=C(O)[C@@H](N(C)C)[C@@H]3[C@@H](O)[C@@H]21" ?
**A:** > 32 µg/mL

**Q:** Try the compound CO/N=C(\C(=O)N[C@@H]1C(=O)N2C(C(=O)[O-])=C(C[N+]3(C)CCCC3)CS[C@H]12)c1csc(N)n1 [CPM, cefepime]
**A:** ≤ 0.25 µg/mL

---

test system: E. cloacae 118564; assay: microbe, parasite or virus in culture; assay type: cell-based, Enterobacter cloacae; details: Enterobacter cloacae, 18 h; E. cloacae 118564; read-out: MICs of various antibiotics
Listed next: entries and their corresponding MIC.

Previously resolved entries follow.
>>> result("Cc1nnc(SCC2=C(C(=O)O)N3C(=O)[C@@H](NC(=O)Cn4cnnn4)[C@H]3SC2)s1")
"> 128 µg/mL"
>>> result("CO[C@@]1(NC(=O)Cc2cccs2)C(=O)N2C(C(=O)O)=C(COC(N)=O)CS[C@@H]21")
"> 32 µg/mL"

Now, please, on to the next compound.
**Q:** Which MIC value is on record for "C[C@H]1[C@H](NC(=O)/C(=N\OC(C)(C)C(=O)O)c2csc(N)n2)C(=O)N1S(=O)(=O)O" ?
**A:** ≤ 0.12 µg/mL

---

system: E. cloacae 118564; type: cell-based, Enterobacter cloacae; details: novobiocin in combination with the UTBLP
Non-standard residues stand in square brackets, D forms with d. Residues, ends and D or L forms follow the SMILES beside them. *: point of attachment. Lys(Me3) = C[N+](C)(C)CCCC[C@H](N)C(=O)O; Lys(Me) = CNCCCC[C@H](N)C(=O)O; Octanoyl = CCCCCCCC(=O)*
Lab note: compare MICantibiotic [MICcombo] with 2 µg/mL, writing yes if less and no if equal or more.

Worked examples, 3 compounds total:
>>> qualitative_label("CCCCCCCC(=O)NCCCC[C@H](NC(=O)CCCCCCC)C(=O)N[C@@H](CCCCN)C(=O)N[C@@H](CCCCN)C(=O)N[C@@H](CCCCN)C(=O)N[C@@H](CCCCN)C(N)=O [UTBLP 5] (Octanoyl-K(Octanoyl)KKKK-NH2)")
"yes"
>>> qualitative_label("CCCCCCCC(=O)NCCCC[C@H](NC(=O)CCCCCCC)C(=O)N[C@@H](CCCC[N+](C)(C)C)C(=O)N[C@@H](CCCC[N+](C)(C)C)C(=O)N[C@@H](CCCC[N+](C)(C)C)C(=O)N[C@@H](CCCC[N+](C)(C)C)C(N)=O [UTBLP 8] (Octanoyl-K(Octanoyl)[Lys(Me3)][Lys(Me3)][Lys(Me3)][Lys(Me3)]-NH2)")
"no"
>>> qualitative_label("CCCCCCCC(=O)NCCCC[C@H](NC(=O)CCCCCCC)C(=O)N[C@@H](CCCCNC)C(=O)N[C@@H](CCCCNC)C(=O)N[C@@H](CCCCNC)C(=O)N[C@@H](CCCCNC)C(N)=O [UTBLP 6] (Octanoyl-K(Octanoyl)[Lys(Me)][Lys(Me)][Lys(Me)][Lys(Me)]-NH2)")
"yes"

// next entry
**Q:** Determine whether this compound shows MICantibiotic [MICcombo] lower than 2 µg/mL (ties excluded): "CCCCCCCC(=O)N[C@@H](CCCCN(C)C)C(=O)NCCCN(CCCNC(=O)[C@H](CCCCN(C)C)NC(=O)CCCCCCC)CC(=O)N[C@@H](CCCCN(C)C)C(N)=O"
**A:** no
